# assay-notes: folding stability dG unfold from trypsin proteolysis; higher = more stable
Lab note: anything with folding stability dG unfold at or over 2 kcal/mol counts as Satisfied; the rest go in Not satisfied.

Please review the following examples before continuing.
>>> class_name("SAGGSWVIIIQITIRNPGEERKITIPMEEIQGMPLEQIADNLRKLPGIGDVTIEIQEFPPPKPNDPSAGGSA [r2_282_TrROS]")
"Satisfied"
>>> class_name("SAGGSAGGSAGMVTIYADPDGSYTAHFPDGSSASYSSLEEVKANLKAKYPDVKDVVIEKTSAGGSAGGSAGG [r11_806_JUSTAS]")
"Satisfied"
>>> class_name("SWQIKEVFPLPNGMRIKVYIHPDGYVQVSIRMYRPNPNDGKPQRQRFSITVPLPPGKPPSIDDILDYILNSA [r9_614_TrROS]")
"Satisfied"
>>> class_name("SAGGSAGGSALPEAEVLEVRFSPDGRRVDAVLRLDGELLVLRIDFPPDGTARIELYPAEDISAGGSAGGSAG [r3_167_TrMRF]")
"Not satisfied"

Prompt line: Exam item: decide whether the reported folding stability dG unfold for SSLGPGELEVTELETTEEELPDGTTLKRTLSREIVPDPAGAGRVVLTETLSTVPPDGSETVTTLSVTVLASA [r9_838_JUSTAS] is at least 2 kcal/mol.
Response line: Not satisfied

---

# assay-notes: folding stability dG unfold from chymotrypsin proteolysis; higher = more stable
Class class 1: folding stability dG unfold at least 3 kcal/mol. Class class 0: folding stability dG unfold below 3 kcal/mol.

>>> class_name("SAGGGNIRPVRIERLPDGSLLIVLVADSPDDAFSDESTLDALPGEEELLEARYDPSTGRVLLVRRFRPSAGG [r13_413_TrMRF]")
"class 0"
>>> class_name("SAGGDNIDVERHPHPNNMYMFSITIPPDYPLKIRYPNGPKHEIPIPDPNATIHFMFPPDEPIEIEIYPSAGG [r13_82_TrROS]")
"class 0"
>>> class_name("SDETVELPTVYTLYFGKDGTPRYYITVTLGDGPVAMELPEVSPDVKDGDVVPVKVPSSVVTSYSVSSAPASA [r9_769_JUSTAS]")
"class 0"
>>> class_name("SAGGAFEMSNEYWFPDGFRVKLKVEVYPNGMFMLDLEIEPIPPPPPIKIEKDPDGEYKYDPNGQPQKDSAGG [r13_151_TrROS]")
"class 1"

Prompt line: Please tell me: is the sequence SAGGSAEKEVYLVPFESEEKREKLREALLAEPGIEEVKETEDGVLLVTVPKGLSDKVEKAIKEAGISAGGSA [r15_834_TrMRF] at or over 3 kcal/mol in terms of folding stability dG unfold?
Response line: class 0

Prompt line: Could you verify whether the entry SAGGSAMIEEKLIEIPPIPVPYPDGSVQKVPVLVEETVELKPFIDPNTDKTSTAKTVTKRKVIFPSSAGGSA [r15_884_JUSTAS] shows folding stability dG unfold of no less than 3 kcal/mol?
Response line: class 0

Prompt line: Given the entry SAGGMTTVTTTFTMSSEELKKFLEEKFGREVTKEEIIELIPKEKKIDVSESPQPNGTVKYTITITIEKSAGG [r13_869_JUSTAS] , answer whether its folding stability dG unfold meets or surpasses 3 kcal/mol.
Response line: class 0

Prompt line: Determine whether this sequence has folding stability dG unfold no lower than 3 kcal/mol: SAGGSAGGSAMIEISSYTLPNGELVVEVTIPDPNSDKTTTLRGKYSSLEEAREEAEKLYLQSAGGSAGGSAG [r3_174_JUSTAS]
Response line: class 0

Prompt line: API: above_or_equal(metric=folding stability dG unfold, cutoff=3 kcal/mol) for item SAGGSAPDDVEVEIKNIHYNPNWGYIMITIKVDGPVDSIEIELPNGWEISVMRDKDGTMTIMFPFPSAGGSA [r15_736_TrROS]
Response line: class 1

Prompt line: Is folding stability dG unfold for SAGGKEVLTVTVEVEIDGVLIRVEAEVTLDEDGNLTVTITRIEIRPLPPPKIDLRDLTDEQRKELGIESAGG [r13_964_TrROS_Hall] at or above 3 kcal/mol?
Response line: class 0

Prompt line: folding stability dG unfold >= 3 kcal/mol for KIEIVEIKKENGKITIKVKNPIPNAKLIIYLFNPKGEIVSAKTHPGPEVELEIEVPENESFSVLVKLFPPKS [r1_382_TrMRF] ?
Response line: class 1

Prompt line: Please check the record SAMPIQIMVERDPDDGYIKVTIMFRSDSPEEAYELIETLFENLGVEVNIERYPEEGYFMIEVEIRLPPGSAG [r14_424_TrROS] and state if its folding stability dG unfold is at or above 3 kcal/mol.
Response line: class 1

---

# assay-notes: folding stability dG unfold from trypsin proteolysis; higher = more stable
I'd appreciate it if you could label each record using folding stability dG unfold and these ranges: Low: < 0.4 kcal/mol; Medium: ≥ 0.4 kcal/mol and < 3 kcal/mol; High: ≥ 3 kcal/mol

>>> class_name("SGPTVTYKVPYTRDVAVPTVKIGAKVTTTTTVTKLPNGTLASTSTSADVELTLNLPPDTPLSPNYLSTGGSA [r9_277_JUSTAS]")
"Low"
>>> class_name("SAGGSKPEKIKVVSVEVFPDGLIKVKVKTESGYEATALIVKLPGDKYLIFLTIPANGKPFVFELPASAGGSA [r2_361_TrMRF]")
"Medium"

Prompt line: // return the class label for KTYTIDEIAEKLGMSKEELKNMSAEEIKEALKKLLPPEEIEKVEISYNEKDKKVTITVTLKNGEKVEITIDS [r1_340_TrROS_Hall]
Response line: High

Prompt line: Class label required: SAGGIRIRDEDGKPRAEYTIYHPDHGMPIEINVYRNKDGNPYIQVEMTGPNGRPKKFTMPADDLNDLSAGGS [r8_24_TrROS]
Response line: Low

Prompt line: Class label required: SAMPIESVEFHPEEGVITLRFRAPAHPDAEKFEIEVVVDGAEAGEIEVEVDPETNEVRALVRVKIPKGASAG [r14_244_TrMRF]
Response line: Medium

Prompt line: Any idea which band MEIKKIELKVEEKDGKLVLTVKIEVFDKNGKLVKKVEIKLEVPKELKEGQSLEELPLSEELRKLVKELLEKS [r1_354_TrROS_Hall] is in?
Response line: High

Prompt line: Which folding stability dG unfold category applies to SAGGSAGGSAGGSEGAPIRVTLTGTRTETRTRPDGSPVTDSGTDTVEFTLDLYDPEKSGSAGGSAGGSAGGS [r4_450_TrMRF] here?
Response line: Low

Prompt line: Looking at SAGGPLVVEAKVEGDTVTIRLPNGEEFTAHPDATLFLPNGERVFFEPVSDDVVIATVVPLPEDAEFPSAGGS [r16_277_TrMRF] , which class would you pick?
Response line: Low

Prompt line: Class? Entry: SAGGSAGGSAGKKIKYRITIYNKKTGKTIEIEIEMSEDEIKKIAEELAKKYNVKIKIEPVSAGGSAGGSAGG [r11_515_TrROS_Hall]
Response line: High

---

# assay-notes: folding stability dG unfold from chymotrypsin proteolysis; higher = more stable
Below is a list of entries, each paired with its recorded folding stability dG unfold value.
Report the figure in kcal/mol without appending any unit label.

Study these solved cases before continuing.
>>> result("SAGGSAGGSAGKIEIIKDKKNGKYTVKIRNKDGEEIEIEVDSLEELEELAKKLNIEVEVESAGGSAGGSAGG [r11_1049_TrROS_Hall]")
3.4
>>> result("SAGGATTERTFTFPSSVSPEEAAAAVAAEAPPGLRVDVAPVATRADPSGVTTTTLRARFTDPAAPAAASAGG [r13_12_JUSTAS]")
0.297
>>> result("SAGGGSTVTTFDPSTGKTTVSIGTDPATGERTVTIVLKNGTPVTVPGPFPSVEEAEAAAAAAAAAAASAGGS [r16_319_JUSTAS]")
0.824
>>> result("SAGGSAGGSAPPRRVTIEYDPDSGMFKVKVPGGKEREIEGMPPNQIEEQAKDYGIDRVEIVSAGGSAGGSAG [r3_78_TrROS]")
-0.286
>>> result("SAGGSAAITFPSDKTATVLSEEYDPVKKTTTVKMKVGNKEVTATLSPDGTVTIKLPDGKEETYPVGSAGGSA [r15_111_JUSTAS]")
1.41
>>> result("SAGGSAGGSAKVKAEIEYDPATGKITIKLITEDERGGKTEEAEITIPIPIPAPPAPPADVDKSAGGSAGGSA [r18_361_TrMRF]")
1.69
>>> result("SAGGSAPPFYIAINPDKPKSIHIMPPGSPDMRDDDGSKVIPFRTEEEFLKLIQEIKKKGVDKIHIYSAGGSA [r15_1004_TrROS]")
0.744
>>> result("SAGGMKITITLTVKNEELLEELKKLAEELGLKVKIEVKYDEETNELTVTVEIELPPPPEEPSEEELKSAGGS [r16_262_TrROS_Hall]")
3.4

Prompt line: Please look up its folding stability dG unfold: SAGGSSITVTDETTVEVSPTGSPTGPPVATVTTTTSTTTTTYYDPKTGTSTETTTTTTTTTTSTGASAGGSA [r2_269_JUSTAS]
Response line: 0.192

Prompt line: folding stability dG unfold lookup needed for SGKVKVKVEIPIPFRPPDGKWMMMNIWVEAEVPVTPEDLNNGKPRIRPEALDEAKDKVREWMRDIFGEPISA [r9_629_TrROS] , thanks.
Response line: 1.74

Prompt line: Looking for the measured folding stability dG unfold of SAGGSAGGNVILVETGPDGRARVLVFDPETGKVTEYEVPADDLDAIEAIAADKVDLVIVRPVGPSAGGSAGG [r6_639_TrMRF] , can you help?
Response line: 2.23
